- METHOD_DESCRIPTION: NCI Yeast Anticancer Drug Screen. Data for the bub3 strain (AID 167)
- RUN_CONDITIONS: S. cerevisiae bub3 mutant strain, at 5.0 µM (retest, dose inferred, filed as 0.5), stronger effect = higher value
This is part of a sample that, as a whole, favours compounds with a hit. Of some 79,000 tested, about 15% had one in any assay.
MEASUREMENT_TYPE: growth inhibition (%)
Give a bare numeral; the unit % is implied.

1) Oc1cc(Br)cc2cc(Cl)cnc12 | 98
2) c1ccc(N=C2SC3=NCCN3C2=Nc2ccccc2)cc1 | -11
3) COC1/C=C\OC2(C)Oc3c(C)c(O)c4c(O)c(c5[nH]c(-c6ccccc6)nc5c4c3C2=O)NC(=O)/C(C)=C\C=C\C(C)C(O)C(C)C(O)C(C)C(OC(C)=O)C1C (stereo not drawn) | 14
4) COc1cc(C=O)c(C=O)cc1OC | 5
5) Oc1ccc(Br)cc1C=Nc1c(NC2CCCCC2)oc2ccc(Br)cc12 | -12

Ask | Give the value of growth inhibition reported for the following: CC(c1ccccc1)n1c2ccccc2c2c(N)ncnc21 (stereo not drawn)
Reply | 13

Ask | Give the value of growth inhibition reported for the following: CC(C)N(C(=O)C12C3C4C5(C#N)C3C1(C#N)C5C42I)C(C)C (stereo not drawn)
Reply | 17

Ask | Give the value of growth inhibition reported for the following: O=C1OC(C2OC(=O)C(=O)C2C(=O)c2ccc([N+](=O)[O-])cc2)C(C(=O)c2ccc([N+](=O)[O-])cc2)C1=O (stereo not drawn)
Reply | 5

Ask | Give the value of growth inhibition reported for the following: CC(=O)c1sc(Nc2ccc(Cl)c(Cl)c2)nc1C
Reply | 1

Ask | Give the value of growth inhibition reported for the following: C/C=C/c1ccc(OCC(=O)O)c(OC)c1
Reply | -31

----------
- METHOD_DESCRIPTION: NCI Yeast Anticancer Drug Screen. Data for the rad50 strain (AID 155);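 also: 0% = growth of vehicle-only cultures of the same strain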
- RUN_CONDITIONS: S. cerevisiae rad50 strain growth inhibition; at 50.0 µM (retest, dose inferred, filed as 5.0); stronger effect = higher value
This is part of a sample that, as a whole, favours compounds with a hit. Of some 79,000 tested, about 15% had one in any assay. Activity calls are given as the source filed them. Cut-off read from the data, not from the text of the source: active = growth inhibition above about 70%; inactive = the rest.
MEASUREMENT_TYPE: growth inhibition

These recorded examples may help you get a feel for the data.
1. CCCN(CCC)c1ccc(Cc2ccc(N(CCC)CCC)cc2N)c(N)c1 | 96% (active)
2. CCCCCCCCCCCCCCCC[N+](C)(C)C(C)c1ccccc1 (centres undefined) | 98% (active)
3. c1ccc([P+](c2ccccc2)(c2ccccc2)C2CCCCO2)cc1 (centres undefined) | 74% (active)

Let us examine a further case.
Ask | Give the value of growth inhibition reported for the following: Oc1ccc(O)c2c(O)c3ccccc3c(O)c12
Reply | 86% (active)

----------
- METHOD_DESCRIPTION: NCI Yeast Anticancer Drug Screen. Data for the rad50 strain (AID 155);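 also: 0% = growth of vehicle-only cultures of the same strain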
- RUN_CONDITIONS: S. cerevisiae rad50 strain growth inhibition; at 50.0 µM (retest, dose inferred, filed as 5.0); stronger effect = higher value
- Protocol: Growth inhibition of yeast strains with defined genetic alterations is measured as a screen for potential anti-cancer activity. Selected strains with alterations in DNA damage repair or cell cycle control were exposed to compounds and growth inhibition was measured relative to vehicle treated controls. The strain used in this assay is rad50
The panel holds about 79,000 compounds, 15% with a hit somewhere; the sample as a whole holds those more often.
MEASUREMENT_TYPE: growth inhibition (%)
Give a bare numeral; the unit % is implied.

These recorded examples may help you get a feel for the data.
1) CN1C(=O)C(Cl)(C(Cl)(Cl)S(=O)(=O)O)C(=O)c2ccccc21 (centres undefined) | 95
2) Cn1c2c(c3nc(N)nc(N)c3c1=O)CCc1ccccc1-2 | 21
3) C=C1CC23CCC4C(C)(C(=O)O)CCCC4(C)C2CCC1C3 (centres undefined) | 98

Let us examine a further case.
Ask | Give the value of growth inhibition reported for the following: CCCN(Cc1ccccc1)S(=O)(=O)c1ccc(C)cc1
Reply | 95

----------
- METHOD_DESCRIPTION: NCI Yeast Anticancer Drug Screen. Data for the mec2-1 strain (AID 157)
- RUN_CONDITIONS: S. cerevisiae mec2-1 strain, at 5.0 µM (retest, dose inferred, filed as 0.5), stronger effect = higher value
This is part of a sample that, as a whole, favours compounds with a hit. Of some 79,000 tested, about 15% had one in any assay. Where a SMILES comes first, the peptide text is derived from it. The star is where a group is joined. Cbz = O=C(OCc1ccccc1)*
Assign class by growth inhibition: not lower than 10% means label 1; lower than 10% means label 0.

1. N#CC(C#N)=C/C=C/c1c(Cl)cccc1Cl | label 1
2. COc1ccccc1NC(=S)N/N=C(/C)c1ccccn1 | label 1

Ask | In plain terms: is recorded growth inhibition at least 10% for Ic1ccc2c(c1)N(c1ccccc1)c1cc(N=c3ccc4nc5ccc(I)cc5n(-c5ccccc5)c-4c3)ccc1N2 ?
Reply | label 1

Ask | In plain terms: is recorded growth inhibition at least 10% for CCOc1ccc(C(=O)CCN2CCOCC2)cc1 ?
Reply | label 1

Ask | In plain terms: is recorded growth inhibition at least 10% for CCOC(=O)CNC(=O)CNC(=O)CNC(=O)OCc1ccccc1 (Cbz-Gly-Gly-Gly-OEt) ?
Reply | label 0

Ask | In plain terms: is recorded growth inhibition at least 10% for CN1/C(=C/C=C/C(I)=C/C=C/C2=[N+](C)c3ccccc3C2(C)C)C(C)(C)c2ccccc21 ?
Reply | label 0

Ask | In plain terms: is recorded growth inhibition at least 10% for CC(NNC(=S)N1CCCCCC1)c1cccnn1 (stereo not drawn) ?
Reply | label 1

Ask | In plain terms: is recorded growth inhibition at least 10% for CC(C)O[C@H]1N(C2CC(N=[N+]=[N-])C(CO)O2)C(=O)NC(=O)[C@]1(C)Br (stereo partly drawn) ?
Reply | label 0

----------
- METHOD_DESCRIPTION: NCI Yeast Anticancer Drug Screen. Data for the bub3 strain (AID 167)
- RUN_CONDITIONS: S. cerevisiae bub3 mutant strain, at 50.0 µM (retest, dose inferred, filed as 5.0), stronger effect = higher value
Compounds without any hit were thinned out: in the full panel of roughly 79,000, 15% have a hit.
Some compounds, each annotated with its measured growth inhibition.
Give a bare numeral; the unit % is implied.

1. O=[N+]([O-])c1ccc(CSSCc2ccc([N+](=O)[O-])cc2)cc1 | 66
2. COC1=CC(=O)C(O)=C/C1=C\C=C\c1ccccc1 | 98
3. Clc1ccc(CN2CCN(Cc3ccc(Cl)cc3)C2c2ccc(Cl)cc2)cc1 | 83

Ask | Give the value of growth inhibition reported for the following: CN1C(=O)CCCCCCCCCCSc2ccccc21
Reply | 98

Ask | Give the value of growth inhibition reported for the following: CCCC(CCC)NCCOC(=O)C(CC)c1ccccc1 (stereo unspecified)
Reply | 75

Ask | Give the value of growth inhibition reported for the following: CCOC1(OCC)C(C)C(c2ccccc2)C(c2ccccc2)C1C (stereo unspecified)
Reply | -5

Ask | Give the value of growth inhibition reported for the following: Cc1cccc2c1C1c3c(C)cccc3C(O)CC1CC2O (stereo unspecified)
Reply | 4

Ask | Give the value of growth inhibition reported for the following: CSc1nc2ccccc2s1
Reply | -1

Ask | Give the value of growth inhibition reported for the following: C(CCCCCN1CCCCC1)CCCCN1CCCCC1
Reply | -18

Ask | Give the value of growth inhibition reported for the following: O=C(NC(c1ccccc1)N1CCOCC1)c1ccccc1 (stereo unspecified)
Reply | -2

Ask | Give the value of growth inhibition reported for the following: COC(=O)c1ccc(NCC2=C(Br)C(=O)C=CC2=O)cc1Cl
Reply | 98

Ask | Give the value of growth inhibition reported for the following: O=C(O)/C=C\C(=O)Nc1ccc2c(c1)C(=O)c1cc(F)ccc1-2
Reply | 2

Ask | Give the value of growth inhibition reported for the following: COc1ccc([N+](=O)[O-])cc1NC(=O)Nc1ccc(C(=O)OCC(C)C)cc1
Reply | 47

----------
Some compounds, each annotated with its measured growth inhibition.
- METHOD_DESCRIPTION: NCI Yeast Anticancer Drug Screen. Data for the sgs1 mgt1 strain (AID 161);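 also: 0% = growth of cultures given vehicle only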
- RUN_CONDITIONS: S. cerevisiae sgs1 mgt1 strain, at 50.0 µM, stronger effect = higher value
This is part of a sample that, as a whole, favours compounds with a hit. Of some 79,000 tested, about 15% had one in any assay.
Give a bare numeral; the unit % is implied.

These recorded examples may help you get a feel for the data.
1. COc1ccc(C(=O)NCCN2CCN3Cc4[nH]c5ccccc5c4CC3C2)cc1 (stereo not drawn) | -6.4
2. CP(=O)(c1ccccc1)c1ccccc1 | 18.4
3. CCN(CC)c1ccc(N=Nc2ccc(-c3nc4ccc[n+](C)c4s3)cc2)cc1 | 88.2
4. Cc1cccc(NC(=O)c2cc3cc(N=Nc4ccccc4Cl)ccc3oc2=O)c1 | 75.4
5. O=C(N/N=C/c1ccccc1[O-])c1ccccc1O.O=C(N/N=C/c1ccccc1[O-])c1ccccc1O.[Mn+2] | 97.7

Ask | Give the value of growth inhibition reported for the following: Oc1cccc(/C=C/c2ccncc2)c1
Reply | 65.5

Ask | Give the value of growth inhibition reported for the following: COc1ncnc2nc(SC)[nH]c12
Reply | 99.6

Ask | Give the value of growth inhibition reported for the following: CCOC(=O)C12CCSC1C1(C#N)C(C#N)=CC2(N=P(c2ccccc2)(c2ccccc2)c2ccccc2)n2c(=O)n(-c3ccccc3)c(=O)n21 (stereo not drawn)
Reply | 59.9

Ask | Give the value of growth inhibition reported for the following: OC(CBr)c1cc(-c2ccccc2)nc2ccccc12 (stereo not drawn)
Reply | 41.8

Ask | Give the value of growth inhibition reported for the following: OC(c1ccccc1)c1cccc(Br)c1 (stereo not drawn)
Reply | 52.9

Ask | Give the value of growth inhibition reported for the following: Cc1c[nH]c(C(=O)O)c1-c1ccc2c(-c3ccccc3)nc3ccccc3n12
Reply | 89.4

Ask | Give the value of growth inhibition reported for the following: CC(C)COC(=O)c1ccc(N=Cc2ccc(C=Nc3ccc(C(=O)OCC(C)C)cc3)cc2)cc1
Reply | -10.2

Ask | Give the value of growth inhibition reported for the following: O=C(OCC1CCCO1)N(c1ccccc1)c1ccccc1 (stereo not drawn)
Reply | 46.9
